Experiment: qHTS Assay for Lipid Storage Modulators in Drosophila S3 Cells;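 further: cells counted by Cell Tracker Red CMTPX staining in the red channel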
Details: BODIPY lipid droplet fluorescence, 18-24 h, cells fed with added oleic acid; measured here: cell count max response
Screen size: about 320,000 compounds; about 2,100 (0.66%) were called active. Roughly 53% stayed inconclusive and do not appear here. The sample as a whole holds a higher share of actives than the screen did.
quantity.kind: cell number change (%)
Give bare numbers, in %.

Examples with answers:
[
  {
    "compound": "NC(=O)N/N=C(/CCCCCC/C(=N\\NC(N)=O)c1ccccc1)c1ccccc1",
    "result.units": "%",
    "cell number change": 2.15
  },
  {
    "compound": "Cc1ccc(S(=O)(=O)NCCCC(=O)N2CCC(C)CC2)cc1",
    "result.units": "%",
    "cell number change": -15.3
  },
  {
    "compound": "CCC(C)c1ccc(OCCN2CCCC2)cc1 (stereo unspecified)",
    "result.units": "%",
    "cell number change": 7.66
  },
  {
    "compound": "CC(C)c1ccc(OCCCN2CCCC2)cc1",
    "result.units": "%",
    "cell number change": 0.741
  },
  {
    "compound": "Cc1cccc(N2CCN(C(=O)c3ccc(CS(=O)Cc4ccc(Cl)cc4)o3)CC2)c1C (stereo unspecified)",
    "result.units": "%",
    "cell number change": -21
  }
]

# cell number change lookup, item `CCOc1ccc(OCCN2CCCCC2)cc1`
-0.326

---

Assay: qHTS Assay for Lipid Storage Modulators in Drosophila S3 Cells;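 further: cells counted by Cell Tracker Red CMTPX staining in the red channel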
Conditions: BODIPY lipid droplet fluorescence, 18-24 h, cells fed with added oleic acid; measured here: cell count max response
Hit rate of the full screen: of about 320,000 compounds, about 2,100 (0.66%) were called active. Another 53% or so got no clear call; they are omitted. What follows is part of a selection rich in actives, with near analogues and random picks from the rest.
For each entry below, report its cell number change value.
One number for each entry, in %.

Examples with answers:
[
  {
    "molecule": "CCN1CCc2nc(NC(=O)C(c3ccccc3)c3ccccc3)sc2C1",
    "cell number change (%)": -8.16
  },
  {
    "molecule": "COc1ccc(S(=O)(=O)NCC2CCCO2)cc1NC(=O)c1ccccc1F (stereo not drawn)",
    "cell number change (%)": -5.13
  },
  {
    "molecule": "CC(C)(C)c1csc(Sc2ncccc2[N+](=O)[O-])n1",
    "cell number change (%)": -11.2
  },
  {
    "molecule": "COC(=O)c1oc(-c2ccc(Cl)cc2)nc1C",
    "cell number change (%)": -10.5
  }
]

Parameter requested: cell number change. Apply to each item below.
1. COC(=O)c1ccc(-c2ccc(/C=N/N3C(=O)C4C5C=CC(C6CC56)C4C3=O)o2)cc1 (stereo not drawn)
2. CCN1CCc2nc(NC(=O)c3ccc4c(c3)OCCO4)sc2C1
3. COc1cc2ccccc2cc1C(=O)NC(=S)Nc1cc(C(=O)O)ccc1C

1: 4.78; 2: -22.4; 3: -26.2

Parameter requested: cell number change. Apply to each item below.
1. O=C(c1ccco1)N1N=C(c2ccc3nccnc3c2)CC1c1ccccc1 (stereo not drawn)
2. COc1cc2ccccc2cc1C(=O)NC(=S)Nc1ccc(C(=O)O)cc1

13.8
-28.9

Parameter requested: cell number change. Apply to each item below.
1. CCOc1ccc(S(=O)(=O)NCC2CCCO2)cc1NC(=O)c1ccccc1F (stereo not drawn)
2. COC(=O)c1cccc(-c2ccc(/C=N/N3C(=O)C4C5C=CC(C6CC56)C4C3=O)o2)c1 (stereo not drawn)
3. COc1ccc(OC)c(CN2CCN(CCCc3ccccc3)C(CCO)C2)c1 (stereo not drawn)
4. C/C(CS(=O)(=O)c1ccccc1)=N\O
5. O=C(O)COc1ccc2oc3c(c2c1)CCCC3

[23.9, -7.37, 25.4, -17.1, 21.3]
